- target.entity: Metallo-beta-lactamase type 2 (Bacteria) (UniProt C7C422)
- Sequence (C7C422 whole entry): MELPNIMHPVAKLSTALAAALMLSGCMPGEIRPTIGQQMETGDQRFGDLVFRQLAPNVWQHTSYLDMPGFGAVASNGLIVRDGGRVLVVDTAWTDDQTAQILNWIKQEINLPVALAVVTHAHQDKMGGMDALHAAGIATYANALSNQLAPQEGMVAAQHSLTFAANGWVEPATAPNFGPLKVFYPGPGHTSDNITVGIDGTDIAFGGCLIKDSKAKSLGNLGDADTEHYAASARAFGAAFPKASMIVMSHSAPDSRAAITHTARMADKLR
- assay.overview: Competitive inhibition of NDM-1 (unknown origin) using penicillin G as substrate by Michaelis-Menten equation based kinetic analysis
measurement.type: Kic (µM)

Sample records with Kic:
- structure.smiles.string: "N#Cc1c(-c2ccccc2)c(-c2ccccc2)n(Cc2ccccc2)c1/N=C/c1ccccc1"
  target.entity: "Metallo-beta-lactamase type 2 (Bacteria) (UniProt C7C422)"
  result.value: 3.2
- structure.smiles.string: "N#Cc1c(-c2ccccc2)c(-c2ccccc2)n(Cc2ccccc2)c1NC(=O)c1ccccc1"
  target.entity: "Metallo-beta-lactamase type 2 (Bacteria) (UniProt C7C422)"
  result.value: 9
- structure.smiles.string: "N#Cc1c(-c2ccccc2)c(-c2ccccc2)n(Cc2ccccc2)c1/N=C/c1ccc(O)cc1"
  target.entity: "Metallo-beta-lactamase type 2 (Bacteria) (UniProt C7C422)"
  result.value: 1.3

P = COC(=O)c1ccc(/C=N/c2c(C#N)c(-c3ccccc3)c(-c3ccccc3)n2Cc2ccccc2)cc1
Q = N#Cc1c(-c2ccccc2)c(-c2ccccc2)n(Cc2ccccc2)c1/N=C/c1cccs1
Prompt line: Of P and Q , which carries the smaller reported Kic figure? Choose, then provide that item's label.
Response line: Q
(Q: 1.7 µM, P: 34 µM)

----------
- System: Bacteria
- assay.overview: Uncompetitive inhibition of AIM-1 (unknown origin) using cefuroxime as substrate by Michaelis-Menten equation based kinetic analysis
measurement.type: Kiuc (µM)

- structure.smiles.string: "N#Cc1c(-c2ccccc2)c(-c2ccccc2)n(Cc2ccccc2)c1/N=C/c1ccc(O)cc1"
  uom: "µM"
  Kiuc: 4.7

1 = N#Cc1c(-c2ccccc2)c(-c2ccccc2)n(Cc2ccccc2)c1NC(=O)c1ccccc1
2 = COC(=O)c1ccc(/C=N/c2c(C#N)c(-c3ccccc3)c(-c3ccccc3)n2Cc2ccccc2)cc1
3 = N#Cc1c(-c2ccccc2)c(-c2ccccc2)n(Cc2ccccc2)c1/N=C/c1ccccc1
4 = N#Cc1c(-c2ccccc2)c(-c2ccccc2)n(Cc2ccccc2)c1/N=C/c1cccs1
Prompt line: List the 4 entries from lowest Kiuc to highest Kiuc value. Provide your answer as the labels ordered per the instruction.
Response line: 3, 1, 4, 2
(3: 11 µM, 1: 19 µM, 4: 35 µM, 2: 72 µM)

----------
- target.entity: Metallo-beta-lactamase type 2 (Bacteria)
- assay.overview: Inhibition of NDM-1 (unknown origin) at 10 uM relative to control
measurement.type: inhibition

- structure.smiles.string: "N#Cc1c(-c2ccccc2)c(-c2ccccc2)n(Cc2ccccc2)c1/N=C/c1ccc([N+](=O)[O-])cc1"
  result.value: "45%"
- structure.smiles.string: "N#Cc1c(-c2ccccc2)c(-c2ccccc2)n(Cc2ccccc2)c1/N=C/c1cccnc1"
  result.value: "28%"
- structure.smiles.string: "COC(=O)c1ccc(/C=N/c2c(C#N)c(-c3ccccc3)c(-c3ccccc3)n2Cc2ccccc2)cc1"
  result.value: "27%"
- structure.smiles.string: "CC(=O)Nc1ccc(/C=N/c2c(C#N)c(-c3ccccc3)c(-c3ccccc3)n2Cc2ccccc2)cc1"
  result.value: "14%"

Let us move to another entry and its inhibition.
Given item N#Cc1c(-c2ccccc2)c(-c2ccccc2)n(Cc2ccccc2)c1/N=C/c1ccc(O)cc1 , the value recorded as its inhibition is 49%

----------
- target.entity: Metallo-beta-lactamase type 2 (Bacteria) (UniProt C7C422)
- assay.overview: Inhibition of NDM-1 (unknown origin) at 10 uM relative to control
Activity calls are given as the source filed them. The rule behind the calls is not given here.
measurement.type: inhibition

Sample records with inhibition:
- structure.smiles.string: "N#Cc1c(-c2ccccc2)c(-c2ccccc2)n(Cc2ccccc2)c1/N=C/c1cccs1"
  inhibition: "57%"
- structure.smiles.string: "N#Cc1c(-c2ccccc2)c(-c2ccccc2)n(Cc2ccccc2)c1/N=C/c1ccc2ccccc2c1"
  inhibition: "50%"
- structure.smiles.string: "N#Cc1c(-c2ccccc2)c(-c2ccccc2)n(Cc2ccccc2)c1/N=C/c1ccccc1"
  inhibition: "38%"
- structure.smiles.string: "N#Cc1c(-c2ccccn2)c(-c2ccccn2)n(Cc2ccccc2)c1N"
  inhibition: "inactive"
- structure.smiles.string: "N#Cc1c(-c2ccccc2)c(-c2ccccc2)n(Cc2ccccc2)c1NCc1ccccc1"
  inhibition: "41%"
- structure.smiles.string: "N#Cc1c(-c2ccccc2)c(-c2ccccc2)n(Cc2ccccc2)c1/N=C/c1ccc(C(=O)O)cc1"
  inhibition: "40%"

Given item N#Cc1c(-c2ccccc2)c(-c2ccccc2)n(Cc2ccccc2)c1NC(=O)c1ccccc1 , the value recorded as its inhibition is 47%

Given item N#Cc1c(-c2ccccc2)c(-c2ccccc2)n(Cc2ccccc2)c1NCc1cccs1 , the value recorded as its inhibition is 29%

Given item N#Cc1c(-c2ccc(C(=O)O)cc2)c(-c2ccc(C(=O)O)cc2)n(Cc2ccccc2)c1N , the value recorded as its inhibition is inactive

----------
- target.entity: Metallo-beta-lactamase type 2 (Bacteria)
- assay.overview: Uncompetitive inhibition of NDM-1 (unknown origin) using penicillin G as substrate by Michaelis-Menten equation based kinetic analysis
measurement.type: Kiuc (µM)

Sample records with Kiuc:
- structure.smiles.string: "N#Cc1c(-c2ccccc2)c(-c2ccccc2)n(Cc2ccccc2)c1/N=C/c1cccs1"
  target.entity: "Metallo-beta-lactamase type 2 (Bacteria)"
  uom: "µM"
  result.value: 11
- structure.smiles.string: "N#Cc1c(-c2ccccc2)c(-c2ccccc2)n(Cc2ccccc2)c1/N=C/c1ccccc1"
  target.entity: "Metallo-beta-lactamase type 2 (Bacteria)"
  uom: "µM"
  result.value: 6
- structure.smiles.string: "N#Cc1c(-c2ccccc2)c(-c2ccccc2)n(Cc2ccccc2)c1NC(=O)c1ccccc1"
  target.entity: "Metallo-beta-lactamase type 2 (Bacteria)"
  uom: "µM"
  result.value: 5

a = COC(=O)c1ccc(/C=N/c2c(C#N)c(-c3ccccc3)c(-c3ccccc3)n2Cc2ccccc2)cc1
b = N#Cc1c(-c2ccccc2)c(-c2ccccc2)n(Cc2ccccc2)c1/N=C/c1ccc(O)cc1
c = N#Cc1c(-c2ccccc2)c(-c2ccccc2)n(Cc2ccccc2)c1NCc1ccccc1
Prompt line: Please list the entries, largest Kiuc first. Provide your answer as the labels ordered per the instruction.
Response line: a, c, b

----------
- Tested on: Bacteria
- assay.overview: Inhibition of AIM-1 (unknown origin) at 10 uM relative to control
The source made the active and inactive calls. The rule behind the calls is not given here.
measurement.type: inhibition

Sample records with inhibition:
- structure.smiles.string: "N#Cc1c(-c2ccccc2)c(-c2ccccc2)n(Cc2ccccc2)c1NCc1cccs1"
  target.entity: "Bacteria"
  measurement.type: "inhibition"
  result.value: "25%"
- structure.smiles.string: "N#Cc1c(-c2ccccc2)c(-c2ccccc2)n(Cc2ccccc2)c1/N=C/c1cccnc1"
  target.entity: "Bacteria"
  measurement.type: "inhibition"
  result.value: "11%"
- structure.smiles.string: "N#Cc1c(-c2ccccn2)c(-c2ccccn2)n(Cc2ccccc2)c1N"
  target.entity: "Bacteria"
  measurement.type: "inhibition"
  result.value: "inactive"
- structure.smiles.string: "CC(=O)Nc1ccc(/C=N/c2c(C#N)c(-c3ccccc3)c(-c3ccccc3)n2Cc2ccccc2)cc1"
  target.entity: "Bacteria"
  measurement.type: "inhibition"
  result.value: "10%"
- structure.smiles.string: "N#Cc1c(-c2ccccc2)c(-c2ccccc2)n(Cc2ccccc2)c1NCc1ccccc1"
  target.entity: "Bacteria"
  measurement.type: "inhibition"
  result.value: "32%"
- structure.smiles.string: "N#Cc1c(-c2ccccc2)c(-c2ccccc2)n(Cc2ccccc2)c1/N=C/c1ccc(O)cc1"
  target.entity: "Bacteria"
  measurement.type: "inhibition"
  result.value: "61%"
- structure.smiles.string: "N#Cc1c(-c2ccccc2)c(-c2ccccc2)n(Cc2ccccc2)c1NC(=O)c1ccccc1"
  target.entity: "Bacteria"
  measurement.type: "inhibition"
  result.value: "42%"
- structure.smiles.string: "COC(=O)c1ccc(/C=N/c2c(C#N)c(-c3ccccc3)c(-c3ccccc3)n2Cc2ccccc2)cc1"
  target.entity: "Bacteria"
  measurement.type: "inhibition"
  result.value: "19%"
- structure.smiles.string: "N#Cc1c(-c2ccccc2)c(-c2ccccc2)n(Cc2ccccc2)c1/N=C/c1ccc(C(=O)O)cc1"
  target.entity: "Bacteria"
  measurement.type: "inhibition"
  result.value: "39%"
- structure.smiles.string: "N#Cc1c(-c2ccccc2)c(-c2ccccc2)n(Cc2ccccc2)c1/N=C/c1ccc([N+](=O)[O-])cc1"
  target.entity: "Bacteria"
  measurement.type: "inhibition"
  result.value: "40%"

Given item N#Cc1c(-c2ccccc2)c(-c2ccccc2)n(Cc2ccccc2)c1/N=C/c1cccs1 , the value recorded as its inhibition is 42%

Given item N#Cc1c(-c2ccccc2)c(-c2ccccc2)n(Cc2ccccc2)c1/N=C/c1ccccc1 , the value recorded as its inhibition is 42%

Given item N#Cc1c(-c2ccc(C(=O)O)cc2)c(-c2ccc(C(=O)O)cc2)n(Cc2ccccc2)c1N , the value recorded as its inhibition is inactive

Given item N#Cc1c(-c2ccccc2)c(-c2ccccc2)n(Cc2ccccc2)c1/N=C/c1ccc2ccccc2c1 , the value recorded as its inhibition is 26%

Given item COC(=O)c1ccc(-c2c(C#N)c(N)n(Cc3ccccc3)c2-c2ccc(C(=O)OC)cc2)cc1 , the value recorded as its inhibition is inactive
